Source: patent US11312722B2

# target entity: Hsp90 (C. albicans whole cell lysate) (Candida albicans (strain SC5314 / ATCC MYA-2876) (Yeast), UniProt P46598)
# assay details: biochemical
# Assay type: binding
# test parameters: read-out: C. alb EC50
readout: pEC50
pEC50 here is simply -log10 of the concentration when that concentration is written in mol/L.

Requested field: pEC50. Item: "O=C(O)Cn1nc(-c2ccccc2)cc1Nc1cc(O)cc(O)c1C(=O)N1Cc2ccccc2C1"
5.67

Next molecule up: "Cn1nc(-c2cccc(F)c2F)cc1Nc1cc(O)cc(O)c1C(=O)N1Cc2ccccc2C1"
5.65

Next molecule up: "Cn1nc(-c2cccc(F)c2)cc1Nc1cc(O)cc(O)c1C(=O)N1Cc2ccccc2C1"
5.90

Next molecule up: "COc1ccccc1-c1cc(Nc2cc(O)cc(O)c2C(=O)N2CC[C@@H](OC)C2)n(C)n1"
6.63

Next molecule up: "Cn1nc(-c2ccccc2)cc1Nc1cc(O)cc(O)c1C(=O)N1Cc2ccncc2C1"
5.99

Next molecule up: "Cc1cccc(-n2nc(C)c(Nc3cc(O)cc(O)c3C(=O)N3Cc4ccccc4C3)c2C)c1"
5.69

Next molecule up: "COc1ccccc1-n1nc(C)c(Nc2cc(O)cc(O)c2C(=O)N2Cc3ccccc3C2)c1C"
5.97

Next molecule up: "COc1cccc(-c2cc(Nc3cc(O)cc(O)c3C(=O)N3Cc4cccc(F)c4C3)n(C)n2)c1"
5.24

====

# assay details: in vitro
# test parameters: both, CD-1, mouse, liver microsomes
readout: half-life at 1 μM (min)
Report the value in min with no unit label.

Requested field: half-life at 1 μM. Item: Cn1nc(C2CCCCC2)cc1Nc1cc(O)cc(O)c1C(=O)N1Cc2cn[nH]c2C1 [Compound 105]
2.7

====

# target entity: Hsp90 (C. albicans whole cell lysate) (Candida albicans (strain SC5314 / ATCC MYA-2876) (Yeast))
# assay details: biochemical
# Format: binding
# test parameters: Yes/No call
readout: C. alb Active (biochemical)

Requested field: C. alb Active (biochemical). Item: "O=C(O)Cn1nc(-c2ccccc2)cc1Nc1cc(O)cc(O)c1C(=O)N1Cc2ccccc2C1"
Yes

Next compound up: "COc1ccc(-c2cc(Nc3cc(O)cc(O)c3C(=O)N3Cc4cn[nH]c4C3)n(C)n2)cc1"
Yes

Next compound up: "COc1ccc(-c2cc(Nc3cc(O)cc(O)c3C(=O)N3Cc4cccnc4C3)n(C)n2)cc1"
Yes

Next compound up: "Cn1nc(-c2cc(F)ccc2F)cc1Nc1cc(O)cc(O)c1C(=O)N1Cc2ccccc2C1"
Yes

====

We begin with a simple list: items and their reported CLint scaled at 1 μM.
# assay details: in vitro
# test parameters: both, CD-1, mouse, liver microsomes
Report the value in mL/min/kg with no unit label.

Requested field: CLint scaled at 1 μM. Item: "Cn1nc(-c2ccc(C(C)(C)C)cc2)cc1Nc1cc(O)cc(O)c1C(=O)N1Cc2cn[nH]c2C1"
847

Next molecule up: "COc1cccc(-c2cc(Nc3cc(O)cc(O)c3C(=O)N3Cc4ccccc4C3)n(C)n2)c1"
1740

Next molecule up: "Cc1cccc(-c2cc(Nc3cc(O)cc(O)c3C(=O)N3Cc4cn[nH]c4C3)n(C)n2)c1"
582

Next molecule up: "Cn1nc(C2CCCCC2)cc1Nc1cc(O)cc(O)c1C(=O)N1Cc2cn[nH]c2C1"
1990

Next molecule up: "COc1cccc(-c2cc(Nc3cc(O)cc(O)c3C(=O)N3Cc4cn[nH]c4C3)n(C)n2)c1"
318

New cases:
Requested field: CLint scaled at 1 μM. Item: "Cn1nc(-c2ccc(OC(F)(F)F)cc2)cc1Nc1cc(O)cc(O)c1C(=O)N1Cc2cccnc2C1"
387

Next molecule up: "Cn1nc(-c2ccc(OC(F)(F)F)cc2)cc1Nc1cc(O)cc(O)c1C(=O)N1Cc2cn[nH]c2C1"
176

Next molecule up: "COc1cccc(-c2cc(Nc3cc(O)cc(O)c3C(=O)N3Cc4cccnc4C3)n(C)n2)c1"
1590

Next molecule up: "CC(C)c1ccc(Cn2nccc2Nc2cc(O)cc(O)c2C(=O)N2Cc3ccccc3C2)cc1"
1770

====

# test parameters: mouse liver microsomes, with NADPH
readout: % remaining at 15 min (%)
Report the value in % with no unit label.

The cases that follow already have their % remaining at 15 min on record.
Requested field: % remaining at 15 min. Item: Cn1nc(-c2ccc(OC(F)(F)F)cc2)cc1Nc1cc(O)cc(O)c1C(=O)N1Cc2cccnc2C1 [Compound 131]
35.5

Next compound up: Cn1nc(-c2ccc(C(C)(C)C)cc2)cc1Nc1cc(O)cc(O)c1C(=O)N1Cc2cn[nH]c2C1 [Compound 129]
21.1

New cases:
Requested field: % remaining at 15 min. Item: Cc1cccc(-c2cc(Nc3cc(O)cc(O)c3C(=O)N3Cc4cn[nH]c4C3)n(C)n2)c1 [Compound 111]
20.2

Next compound up: Cn1nc(C2CCCCC2)cc1Nc1cc(O)cc(O)c1C(=O)N1Cc2cn[nH]c2C1 [Compound 105]
2.3

Next compound up: COc1cccc(-c2cc(Nc3cc(O)cc(O)c3C(=O)N3Cc4cccnc4C3)n(C)n2)c1 [Compound 113]
4.9

Next compound up: COc1cccc(-c2cc(Nc3cc(O)cc(O)c3C(=O)N3Cc4ccccc4C3)n(C)n2)c1 [Compound 112]
3.7

Next compound up: Cn1nc(-c2ccc(OC(F)(F)F)cc2)cc1Nc1cc(O)cc(O)c1C(=O)N1Cc2cn[nH]c2C1 [Compound 132]
63.0

Next compound up: COc1cccc(-c2cc(Nc3cc(O)cc(O)c3C(=O)N3Cc4cn[nH]c4C3)n(C)n2)c1 [Compound 114]
40.1

Next compound up: CC(C)c1ccc(Cn2nccc2Nc2cc(O)cc(O)c2C(=O)N2Cc3ccccc3C2)cc1 [Compound 83]
3.4

====

# target entity: Hsp90 (C. albicans whole cell lysate) (Candida albicans (strain SC5314 / ATCC MYA-2876) (Yeast))
# assay details: biochemical
# Type: binding
# test parameters: Yes/No call
readout: C. alb Active (biochemical)

The cases that follow already have their C. alb Active (biochemical) on record.
Requested field: C. alb Active (biochemical). Item: Cc1cccc(-c2cc(Nc3cc(O)cc(O)c3C(=O)N3Cc4ccccc4C3)n(C)n2)c1C [ACSM01272]
Yes

Next molecule up: COc1ccccc1-c1cc(Nc2cc(O)cc(O)c2C(=O)N2CC[C@@H](OC)C2)n(C)n1 [ACSM01350]
Yes

Next molecule up: COc1cccc(-c2cc(Nc3cc(O)cc(O)c3C(=O)N3Cc4ccc(N5CCN(C)CC5)cc4C3)n(C)n2)c1 [ACSM01375]
No

Next molecule up: Cc1nn(-c2cccc(C(F)(F)F)c2)c(C)c1Nc1cc(O)cc(O)c1C(=O)N1Cc2ccccc2C1 [ACSM01494]
Yes

Next molecule up: Cn1nc(-c2ccccc2)cc1Nc1cc(O)cc(O)c1C(=O)N1Cc2ccccc2C1 [Compound 91]
Yes

// below: C. alb Active (biochemical) requested for another molecule
Requested field: C. alb Active (biochemical). Item: Cn1nc(-c2cccc(F)c2)cc1Nc1cc(O)cc(O)c1C(=O)N1Cc2ccccc2C1 [ACSM01345]
Yes

====

# target entity: Hsp90 (C. neoformans whole cell lysate) (Cryptococcus neoformans, UniProt J9VVA4)
# Sequence (J9VVA4 1-699): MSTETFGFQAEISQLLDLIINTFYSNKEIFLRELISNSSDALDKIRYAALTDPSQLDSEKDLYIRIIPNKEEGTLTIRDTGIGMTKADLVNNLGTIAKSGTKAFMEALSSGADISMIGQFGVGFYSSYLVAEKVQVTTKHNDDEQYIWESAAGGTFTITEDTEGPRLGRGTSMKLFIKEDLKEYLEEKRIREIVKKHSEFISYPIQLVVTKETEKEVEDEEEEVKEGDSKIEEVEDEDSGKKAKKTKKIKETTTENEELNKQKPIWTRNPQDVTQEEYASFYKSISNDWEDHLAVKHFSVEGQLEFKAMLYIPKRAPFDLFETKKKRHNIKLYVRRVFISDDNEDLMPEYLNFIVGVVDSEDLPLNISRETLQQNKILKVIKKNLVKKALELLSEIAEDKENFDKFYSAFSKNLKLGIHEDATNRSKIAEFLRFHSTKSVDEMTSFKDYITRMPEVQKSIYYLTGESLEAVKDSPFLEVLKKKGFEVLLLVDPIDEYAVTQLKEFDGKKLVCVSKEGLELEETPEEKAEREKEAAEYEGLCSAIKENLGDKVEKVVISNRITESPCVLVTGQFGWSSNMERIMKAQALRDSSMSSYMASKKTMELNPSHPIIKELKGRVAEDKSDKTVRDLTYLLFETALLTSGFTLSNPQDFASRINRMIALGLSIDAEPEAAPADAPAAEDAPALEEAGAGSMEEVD
# test parameters: read-out: C. neo EC50
# Method: All analogs were assessed for Hsp90 binding affinity using a fluorescence polarization (FP)-based equilibrium competition assay in fungal and human whole cell lysates. […] Using lysates, the relative potency and selectivity for fungal Hsp90 was measured versus the entire ensemble of human Hsp90 isoforms in microplate format using small amounts of test materials. […] As a result, they provided qualitative evidence of target binding, but not a quantitative measurement of ligand affinity. […]
pEC50: −log10 of the molar value.
We'd kindly ask you to apply these pEC50 classes: group 1 = under 6, group 2 = from 6 up to 7, group 3 = 7 and over

Hey, which category is O=C(O)Cn1nc(-c2ccccc2)cc1Nc1cc(O)cc(O)c1C(=O)N1Cc2ccccc2C1 [ACSM01476] in, do you know?
group 2

Next compound up: Cc1cccc(-c2cc(Nc3cc(O)cc(O)c3C(=O)N3Cc4ccc(N5CCN(C)CC5)cc4C3)n(C)n2)c1 [ACSM01279]
group 2

Next compound up: Cc1cccc(-c2cc(Nc3cc(O)cc(O)c3C(=O)N3Cc4ccc(N5CCOCC5)cc4C3)n(C)n2)c1 [ACSM01280]
group 1

Next compound up: Cc1nn(-c2cccc(C(F)(F)F)c2)c(C)c1Nc1cc(O)cc(O)c1C(=O)N1Cc2ccccc2C1 [ACSM01494]
group 3

Next compound up: COc1ccccc1-n1nc(C)c(Nc2cc(O)cc(O)c2C(=O)N2Cc3ccccc3C2)c1C [ACSM01493]
group 2

New cases:
Hey, which category is Cn1nccc1Nc1cc(O)cc(O)c1C(=O)N1CC2CC2C1 (stereo not shown) [ACSM01301] in, do you know?
group 1

Next compound up: COc1ccccc1-c1cc(Nc2cc(O)cc(O)c2C(=O)N2CC[C@H](OC)C2)n(C)n1 [ACSM01351]
group 2

Next compound up: Cc1cccc(-n2nc(C)c(Nc3cc(O)cc(O)c3C(=O)N3Cc4ccccc4C3)c2C)c1 [ACSM01486]
group 3
